As shown below, each of these molecules has a reported Percent Effect value.
target: Tyrosyl-tRNA synthetase, putative (Trypanosoma cruzi (strain CL Brener)); test: Trypanosoma cruzi tyrosyl tRNA synthetase (TcYRS) _High Tyrosine SOP; format: functional; parameters: scale not given: in the data most compounds retested in dose-response had high values; details: 30 µM
Expressed in %, but write only the number.

Cc1ccc(C(CNCc2cnn(C(C)C)c2)N2CCOCC2)s1 (configuration not stated): 4.95
O=C(COc1coc(CN2CCCC2)cc1=O)NCc1ccccc1Cl: 6.35
CN(C)c1ccc(CNC(=O)c2ccc(Cl)cc2F)cc1: 4.25
c1cnnc(N2CCCC2CNc2ncnc3ccccc23)c1 (configuration not stated): 25
NC(=O)CN1CCCN(C(=O)c2ccn(-c3cccc(F)c3)n2)CC1: -1.05

For the molecule `Cc1ccc(C)c(NC(=O)N(C)Cc2cnn(C)c2)c1` , the measured Percent Effect on Tyrosyl-tRNA synthetase, putative (Trypanosoma cruzi (strain CL Brener)) was 7.39

Sample O=C(CCn1cnnc1)N1CCCC(c2ncc[nH]2)C1 (configuration not stated) , system: Tyrosyl-tRNA synthetase, putative (Trypanosoma cruzi (strain CL Brener)). Its Percent Effect is 3.23

Assay Tyrosyl-tRNA synthetase, putative (Trypanosoma cruzi (strain CL Brener)), sample CCn1ncc2c1C(COC)CN(Cc1ccsc1)C2 (configuration not stated) , Percent Effect read: 7.53

Field Percent Effect (Tyrosyl-tRNA synthetase, putative (Trypanosoma cruzi (strain CL Brener))), entry Cc1ccc(C2COCCN2C(=O)c2ccc(CN(C)C)cc2)o1 (configuration not stated) : 1.64

Field Percent Effect (Tyrosyl-tRNA synthetase, putative (Trypanosoma cruzi (strain CL Brener))), entry CCn1nc(C)cc1C(=O)Nc1cc(F)ccc1OCC1CCCO1 (configuration not stated) : 4.76

Tested system Tyrosyl-tRNA synthetase, putative (Trypanosoma cruzi (strain CL Brener)); Percent Effect recorded for COCCn1nc(C(=O)N2CCCC2c2cccc(F)c2)ccc1=O (configuration not stated) was -0.529

Measured Percent Effect for this entry `Fc1cnc(N2C[C@H]3CCC[C@@]3(COc3ccccn3)C2)nc1` on Tyrosyl-tRNA synthetase, putative (Trypanosoma cruzi (strain CL Brener)): 5.29

Item Cc1ccc(CN2CCc3ncnc(C4CCOC4)c3CC2)s1 (configuration not stated) ; assay system Tyrosyl-tRNA synthetase, putative (Trypanosoma cruzi (strain CL Brener)); Percent Effect reported as 5.21

Record `CC(C)NC(=O)c1ccc2c(c1)nc1n2CCN(C(C)C)C1` / Tyrosyl-tRNA synthetase, putative (Trypanosoma cruzi (strain CL Brener)), Percent Effect recorded as 6.35

`Cc1ccc(C(=O)NC2CCN(Cc3noc(CC(C)C)n3)CC2)s1` on Tyrosyl-tRNA synthetase, putative (Trypanosoma cruzi (strain CL Brener)) gives Percent Effect = -3.23

Record for `COc1cccc(C)c1C(=O)N1C[C@@H](CN(C)C)[C@@H](CO)C1` under target or system Tyrosyl-tRNA synthetase, putative (Trypanosoma cruzi (strain CL Brener)): Percent Effect reported as 6.45

---

target: Ubiquitin-activating enzyme e1, putative (Leishmania donovani (strain BPK282A1)); assay: Leishmania donovani Ubiquitin Activating Enzyme (LdE1); assay type: functional; parameters: scale not given: direction of the effect not stated beside the values; conditions: 30 µM
Entries with a potency or affinity are not part of this list.
result.type: Percent Effect (%)
Give the value in % but do not write % after it.

Cc1noc2nc(C3CCN(Cc4ccncc4)CC3)cc(C(F)F)c12: 1.35
Cc1ccc(F)c(OC2(C(=O)O)CCN(C(=O)N3CCCC3)CC2)c1: -6.94
CCc1noc(C2CCN(C(=O)CCn3nc(C)cc3C)CC2)n1: 18.2

Entry COc1ccc2c(c1)CC(NC(=O)NCc1cccs1)CO2 (stereo not drawn) — recorded Percent Effect = 7.79

The compound listed as `COCCN1C(=O)CO[C@H]2CN(Cc3c[nH]nc3-c3ccccc3)C[C@@H]21` shows Percent Effect equal to 12.2
